Molecular target: AMP-activated protein kinase, AMPK (Homo sapiens) (UniProt P54646+O43741+P54619+Q9UGJ0+Q9Y478+Q13131+Q9UGI9)
Assay: AMP-dependent Kinase enzyme assay. An in vitro enzyme assay that detects ADP turnover that is directly proportional to AMPK activity. This uses naive AMPK that is activated during the assay with MK-8722
Type: functional
Design: scale not given: direction of the effect not stated beside the values
Settings: 30 µM
I'd appreciate it if you could supply Percent Effect values for the items below.
Kindly answer with a numeric value in %, unit omitted.

Query string: What measured Percent Effect goes with CCCn1nnnc1COC(=O)C1COc2ccc(Cl)cc2C1 (stereo unspecified) ?
Result string: 19.7

Query string: What measured Percent Effect goes with COc1c(C)cnc(CN2CCCC(c3noc(C4CC4)n3)C2)c1C (stereo unspecified) ?
Result string: -0.157

Query string: What measured Percent Effect goes with CC(C)c1cc(C2CCN(C(=O)Cn3nc4ccccc4n3)CC2)[nH]n1 ?
Result string: 13.1

Query string: What measured Percent Effect goes with COC(=O)c1ccc(CN(C(C)C)C(C)C)o1 ?
Result string: 3.89

Query string: What measured Percent Effect goes with NC(=O)CN1CCC(C(=O)NCC(O)c2cccc(F)c2)CC1 (stereo unspecified) ?
Result string: -5.48

Query string: What measured Percent Effect goes with N#Cc1cccc(NC(=O)N[C@H](CO)Cc2ccc(O)cc2)c1 ?
Result string: 6.46

Every entry's value here was drawn from ChEMBL document CHEMBL3988442.
